System: NCI/ADR-RES ovarian
procedure_details: NCI-60 one-dose screen, 48 h (100 = growth as untreated, 0 = no growth, -100 = all killed)
details: 10 µM unless noted
About 83,000 compounds went through this panel and 20% of them were active in at least one assay; those are over-represented in the sample as a whole. The source made the active and inactive calls. How the source made its calls: active means growth percent below 10; inactive means the rest.
test_readout: growth

# count of solved cases: 3
O=C(CC12CC3CC(CC(C3)C1)C2)NCCOCCOCCOCCNC(=O)c1cc2c(o1)C(=O)c1ccccc1C2=O :: -15% (active)
O=C(Nc1cccc2[nH]c(C(F)(F)F)nc12)c1cc(Cl)ccc1Cl :: 9.82% (active)
O=C(Oc1ccc([N+](=O)[O-])cc1)c1ccc(CBr)cc1 :: 99.3% (inactive)

query: Report growth for "CN(CCC(=O)/C(=C\c1ccccc1)c1ccc(Cl)cc1)Cc1ccccc1" please.
result: 24% (inactive)

query: Check "COc1ccc(/C=C2\C=C(c3ccccc3)N(CCc3ccccc3)C2=O)cc1OC" too.
result: 31.6% (inactive)

query: Check "Clc1ccc2[nH]c3c(NCCCN4CCOCC4)ncnc3c2c1" too.
result: 65.9% (inactive)

query: Check "COc1ccc(-c2nnc(SCC(=O)NC3=NN=C(c4ccccc4)CS3)o2)cc1" too.
result: 104% (inactive)

query: Check O=C(/C=C/C12c3ccccc3C(c3ccccc31)C1C(=O)NC(=O)C12)c1ccc(Cl)cc1 (stereo not given) too.
result: 4.42% (active)

query: Check "CN(C)c1ccc2cc(-c3ccccc3F)c(N)nc2c1" too.
result: 1.98% (active)

query: Check "O=C(NCCOCCOCCOCCNC(=O)c1cc2c(o1)C(=O)c1ccccc1C2=O)NC12CC3CC(CC(C3)C1)C2" too.
result: 8.9% (active)

query: Check "O=C1C2=C(CCN(Cc3ccccc3)C2)N2CCN=C2N1Cc1ccc(F)cc1F" too.
result: 20.1% (inactive)

query: Check "O=[N+]([O-])c1ccc2[nH]cc(-c3c4ccsc4cc4[nH]c5ccc([N+](=O)[O-])cc5c34)c2c1" too.
result: -14.1% (active)

query: Check "CC(C)n1nc(C#Cc2cccc3cc(-c4cccc(C(F)(F)F)c4)ncc23)c2c(N)ncnc21" too.
result: 82% (inactive)

query: Check "C#CC[C@H](N)C(=O)O" too.
result: 108% [20 µM] (inactive)

query: Check "N=C(N)c1ccc(-c2ccc(-c3ccc(Cl)c(Cl)c3)o2)cc1" too.
result: 35.1% (inactive)

query: Check "CCOC(=O)c1nnn(-c2ccccc2)c1C1=CN(C)CCC1" too.
result: 102% (inactive)

query: Check "CN(C)c1ccc(/C=C/c2c(F)cccc2F)cc1" too.
result: 92.6% (inactive)

query: Check "N#Cc1c(N)nc2c(nnn2-c2cccc(Br)c2)c1N" too.
result: 103% (inactive)

query: Check "COc1ccc(Oc2nc(Nc3ccc(N4CCCCC4)nc3)ncc2NC(=O)c2cc(OC)cc(OC)c2)cc1" too.
result: 26.1% (inactive)

====

System: NCI-H23 lung
procedure_details: NCI-60 one-dose screen, 48 h (100 = growth as untreated, 0 = no growth, -100 = all killed)
details: 10 µM unless noted
The panel holds about 83,000 compounds, 20% with a hit somewhere; the sample as a whole holds those more often.
Each entry below lists one item and its recorded growth value.
Number only, in %; omit the unit.

# count of solved cases: 3
CC(C)(C)CC(C)(C)Nc1c(-c2ccc(-c3ccccc3)cc2)nc2cnccn12 :: 91.5
CCN(CC)N=Nc1nn(C(=O)Nc2ccc(Cc3ccccc3)cc2)c2ccc(Cl)cc12 :: 90.4
CCNCCNc1cc(-c2ccc(Cl)cc2)c(C#N)c2nc3ccccc3n12 :: 44.7

query: Report growth for O=C1Nc2ccccc2/C1=N/N=C/c1ccc(OC2OC(CO)C(O)C(O)C2O)cc1 (configuration not stated) please.
result: 102
